# Experimental target: Anti-CD28 Fab (SEQ ID NOs: 202, 203)
# Sequence (VH, as listed by the source, chain 1 of 2): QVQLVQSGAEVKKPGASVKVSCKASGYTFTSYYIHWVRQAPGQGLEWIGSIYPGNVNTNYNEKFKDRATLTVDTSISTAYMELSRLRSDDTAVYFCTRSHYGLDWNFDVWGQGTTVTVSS
# Sequence (VL, as listed by the source, chain 2 of 2): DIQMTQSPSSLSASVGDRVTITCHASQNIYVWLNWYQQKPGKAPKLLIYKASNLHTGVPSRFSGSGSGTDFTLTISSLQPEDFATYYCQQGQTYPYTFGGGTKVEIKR
# Experiment notes: phage binding ELISA on captured Fab, competitor CD28 antigen;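 also: clonal phage supernatant binding in wells preincubated with CD28 antigen in blocking buffer, detected by HRP-conjugated anti-M13 antibody ELISA, compared with blocking buffer alone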
Measurement kind: Anti-CD28 Fab signal in the presence of CD28
Please respond with just the number, no unit label.

Solved entries (count: 2):
>>> experimental_value("YCEGHLPWYMSKCL [Phage-837]")
0.09
>>> experimental_value("YCDGHAPEFIRKCL [Phage-754]")
0.07

Short answer for YCQGHLPIYIQKCL [Phage-866] : Anti-CD28 Fab signal in the presence of CD28 was 0.07

Short answer for YCEGHAHEYMEKCV [Phage-790] : Anti-CD28 Fab signal in the presence of CD28 was 0.07
